Reported IC50 for target or system JAK3 (Homo sapiens (Human)), by entry.
Parameter: IC50 (nM)

Before answering, review these 2 worked examples.
Compound: C[C@]1(F)CCC[C@H]1Nc1c(C(N)=O)cnn2cc(N3CCOCC3=O)cc12 (racemic) [Example 318]
IC50 [nM]: 7.1
--
Compound: CC1(C)[C@H](Nc2c(C(N)=O)cnn3cc(N4CCOCC4=O)cc23)CC[C@]1(C)N [Example 312]
IC50 [nM]: 44.2

[I] NC(=O)c1cnn2cc(-c3ccc(F)cc3)cc2c1NC12CC3CC(O)(CC(O)(C3)C1)C2 [Example 298]
[II] C[C@]1(F)CCC[C@H]1Nc1c(C(N)=O)cnn2cc(-c3cccc(C(N)=O)c3)cc12 (racemic) [Example 94]
[III] COc1ccc(S(=O)(=O)Nc2cc3c(N[C@@H]4CC[C@@](C)(O)C4(C)C)c(C(N)=O)cnn3c2)cc1 (racemic) [Example 24]
[IV] COc1cccc(-c2cc3c(NC4C5CC6CC4CC(O)(C6)C5)c(C(N)=O)cnn3c2)c1 (stereo not drawn) [Example 176]
Order field: IC50 | Direction: descending (largest first) List the labels in the requested order.
III, IV, I, II

Attribution: patent US8921368B2
